tested on: Escherichia coli; experiment: Induction of DNA photocleavage activity in Escherichia coli pBR322 plasmid assessed as supercoiled DNA form at 10 uM after 30 mins irradiation at 2.5 mW/cm2 by gel electrophoresis
QUANTITY: Activity (%)
Answers are plain numbers, in %.

Worked cases, answers included:
[
  {
    "CPD SMILES": "NCCCCN(CCCN)C(=O)CCCCNC(=O)c1ccc(-c2c3nc(c(-c4ccc(C(=O)NCCCCC(=O)N(CCCN)CCCCN)cc4)c4ccc([nH]4)c(-c4ccc(C(=O)NCCCCC(=O)N(CCCN)CCCCN)cc4)c4nc(c(-c5ccc(C(=O)NCCCCC(=O)N(CCCN)CCCCN)cc5)c5ccc2[nH]5)C=C4)C=C3)cc1",
    "UNIT ANNOTATION": "%",
    "Activity": 64
  },
  {
    "CPD SMILES": "NCCCNCCCCN(CCCN)C(=O)CCCCNC(=O)c1ccc(-c2c3nc(c(-c4ccc(C(=O)NCCCCC(=O)N(CCCN)CCCCNCCCN)cc4)c4ccc([nH]4)c(-c4ccc(C(=O)NCCCCC(=O)N(CCCN)CCCCNCCCN)cc4)c4nc(c(-c5ccc(C(=O)NCCCCC(=O)N(CCCN)CCCCNCCCN)cc5)c5ccc2[nH]5)C=C4)C=C3)cc1",
    "UNIT ANNOTATION": "%",
    "Activity": 57
  }
]

Switching to the query record.
Data request: What Activity appears in the records for this compound with Escherichia coli? Cc1cc(C)c(-c2c3nc(c(-c4ccc(C(=O)NCCCCC(=O)N(CCCN)CCCCNCCCN)cc4)c4ccc([nH]4)c(-c4c(C)cc(C)cc4C)c4nc(c(-c5ccc(C(=O)NCCCCC(=O)N(CCCN)CCCCNCCCN)cc5)c5ccc2[nH]5)C=C4)C=C3)c(C)c1
Data returned: 72
